Tested on: spastin-WT (Drosophila melanogaster spastin, aa 209–758) (Drosophila melanogaster)
Sequence (Q8I0P1 209-758): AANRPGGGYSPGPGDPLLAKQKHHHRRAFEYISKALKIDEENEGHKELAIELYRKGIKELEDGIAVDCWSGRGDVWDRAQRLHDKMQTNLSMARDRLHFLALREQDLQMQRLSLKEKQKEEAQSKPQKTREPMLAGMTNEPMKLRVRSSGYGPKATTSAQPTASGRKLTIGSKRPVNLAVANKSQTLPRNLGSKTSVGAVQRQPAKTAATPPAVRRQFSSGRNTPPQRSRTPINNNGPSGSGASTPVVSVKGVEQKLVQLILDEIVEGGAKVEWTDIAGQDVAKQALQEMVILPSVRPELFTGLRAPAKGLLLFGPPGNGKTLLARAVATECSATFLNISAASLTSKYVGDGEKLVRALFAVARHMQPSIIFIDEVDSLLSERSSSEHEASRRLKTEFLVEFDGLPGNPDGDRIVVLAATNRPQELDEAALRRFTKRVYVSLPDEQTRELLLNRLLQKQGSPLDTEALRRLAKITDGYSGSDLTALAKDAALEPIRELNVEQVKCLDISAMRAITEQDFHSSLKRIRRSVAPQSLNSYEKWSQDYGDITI
Assay overview: Steady-state ATPase activity, NADH-coupled assay, spastin-WT
Assay type: biochemical
Property measured: IC50 (nM)

* CNC(=O)c1cccc(Nc2nc(N)n(C(=O)c3c(F)cccc3OC)n2)c1 [compound 4] | 230

---

Tested on: spastin-N527C (aa 209–758) (Drosophila melanogaster, UniProt Q8I0P1, N527C)
Assay overview: Steady-state ATPase activity, NADH-coupled assay, spastin-N527C
Property measured: IC50 (µM)

• CNC(=O)c1cccc(Nc2nc(N)n(C(=O)c3c(F)cccc3OC)n2)c1 = 1.11
• Nc1nc(Nc2ccc(S(N)(=O)=O)cc2)nn1C(=O)c1c(F)cccc1F = 6
